molecular target: Full length WRN protein (aa 2-1432) (Homo sapiens (Human)); test: WRN ATPase ADP-Glo biochemical assay, Assay Format B (100 μM ATP); details: 0.25 nM WRN, 100 nM C6.18 ssDNA, 60 min preincubation, read-out: ATPase ADPGlo AC50 (uM)- Assay Format B
// reported AC50 for each item listed

INSERT INTO results (molecule, quantity, measured_result) VALUES
  ('C=CC(=O)N1CCc2nn(-c3ccc(C4CC4)cc3C(F)(F)F)c3c2C(C1)N(C(=O)c1cnc(C(F)(F)F)cc1N)CC3 (stereo not drawn)', 'AC50', '> 0.055 µM');

What value of AC50 has been recorded for this entry: CS(=O)(=O)/C=C/CN1CCc2nn(-c3ccc(C4CC4)cc3O)c3c2C(C1)N(C(=O)c1cnc(C(F)(F)F)cc1N)CC3 (stereo not drawn)
> 0.055 µM

What value of AC50 has been recorded for this entry: C=CC(=O)N1CCc2nn(-c3ccc(C4CC4)cc3O)c3c2C(C1)N(C(=O)c1cnc(C(F)(F)F)c(F)c1N)CC3 (stereo not drawn)
0.005 to 0.015 µM

###

target: Full length WRN protein (aa 2-1432) (Homo sapiens (Human), UniProt Q14191); experiment: WRN ATPase ADP-Glo biochemical assay, Assay Format A (10 μM ATP); details: 0.25 nM WRN, 100 nM C6.18 ssDNA, 30 min preincubation, read-out: ATPase ADPGlo AC50 (uM)- Assay Format A
Sequence (Q14191 2-1432): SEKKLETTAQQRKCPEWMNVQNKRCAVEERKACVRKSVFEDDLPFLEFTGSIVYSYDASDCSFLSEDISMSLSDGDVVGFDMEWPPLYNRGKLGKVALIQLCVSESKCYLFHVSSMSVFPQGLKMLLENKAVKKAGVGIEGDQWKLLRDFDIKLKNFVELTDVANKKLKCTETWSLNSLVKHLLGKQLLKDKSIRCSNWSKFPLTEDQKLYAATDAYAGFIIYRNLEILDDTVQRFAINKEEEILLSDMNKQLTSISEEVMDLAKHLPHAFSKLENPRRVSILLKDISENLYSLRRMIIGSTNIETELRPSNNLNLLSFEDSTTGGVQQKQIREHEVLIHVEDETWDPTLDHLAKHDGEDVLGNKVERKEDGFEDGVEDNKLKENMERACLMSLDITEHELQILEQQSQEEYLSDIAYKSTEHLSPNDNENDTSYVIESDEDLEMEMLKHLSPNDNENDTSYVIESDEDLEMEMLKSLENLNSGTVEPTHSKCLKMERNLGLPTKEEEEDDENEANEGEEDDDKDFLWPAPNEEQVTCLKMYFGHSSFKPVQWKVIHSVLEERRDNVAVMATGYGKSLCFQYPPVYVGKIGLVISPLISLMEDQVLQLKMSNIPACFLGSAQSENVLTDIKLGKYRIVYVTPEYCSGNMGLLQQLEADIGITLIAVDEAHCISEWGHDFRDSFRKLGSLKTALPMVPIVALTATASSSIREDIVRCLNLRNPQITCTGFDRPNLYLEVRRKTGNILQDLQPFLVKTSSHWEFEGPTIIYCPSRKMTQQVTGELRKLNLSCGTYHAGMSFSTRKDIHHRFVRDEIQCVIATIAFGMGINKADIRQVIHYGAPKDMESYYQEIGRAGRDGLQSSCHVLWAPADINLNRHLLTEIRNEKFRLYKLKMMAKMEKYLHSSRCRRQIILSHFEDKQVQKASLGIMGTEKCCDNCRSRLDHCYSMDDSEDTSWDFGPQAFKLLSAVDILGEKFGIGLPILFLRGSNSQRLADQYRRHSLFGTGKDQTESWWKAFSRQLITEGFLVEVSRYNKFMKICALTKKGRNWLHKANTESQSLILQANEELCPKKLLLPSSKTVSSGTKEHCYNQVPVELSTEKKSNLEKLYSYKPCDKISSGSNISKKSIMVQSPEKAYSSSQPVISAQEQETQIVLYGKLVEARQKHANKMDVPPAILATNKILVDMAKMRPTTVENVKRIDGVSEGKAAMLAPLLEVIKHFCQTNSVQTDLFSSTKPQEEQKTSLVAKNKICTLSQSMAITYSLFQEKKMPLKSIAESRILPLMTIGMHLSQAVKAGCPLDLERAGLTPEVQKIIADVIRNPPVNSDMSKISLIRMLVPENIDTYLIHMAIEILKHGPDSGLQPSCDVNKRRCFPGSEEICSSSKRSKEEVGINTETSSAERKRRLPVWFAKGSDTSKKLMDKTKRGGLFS
quantity: AC50

INSERT INTO results (molecule, measured_result) VALUES
  ('C=CC(=O)N1CCc2nn(-c3ccc(C(C)C)cc3)c3c2C(C1)N(C(=O)c1ccc(Br)c2ncn(CCOC)c12)CC3 (stereo not shown)', '0.0015 to 0.005 µM'),
  ('C=CC(=O)N1CCc2nn(-c3ccc(C4CCC4)cc3O)c3c2C(C1)N(C(=O)c1cnc(Br)c(OC(F)(F)F)c1)CC3 (stereo not shown)', '0.0015 to 0.005 µM'),
  ('C=CC(=O)N1CC(OC)c2nn(-c3ccc(C4CCC4)cc3)c3c2C(C1)N(C(=O)c1cnc(C(F)(F)F)c(O)c1)CC3 (stereo not shown)', '0.0015 to 0.005 µM'),
  ('C=CC(=O)N1CCOc2nn(-c3ccc(C(C)C)cc3)c3c2C(C1)N(C(=O)c1cnc(C(F)(F)F)c(O)c1)CC3 (stereo not shown)', '0.005 to 0.015 µM'),
  ('C=CC(=O)N1CCc2nn(-c3ccc(C4CCC4)cc3O)c3c2C(C1)N(C(=O)c1cnc(Br)c2[nH]cnc12)CC3 (stereo not shown)', '< 0.0015 µM');

Lab note: need AC50 with Full length WRN protein (aa 2-1432) (Homo sapiens (Human), UniProt Q14191) for entry C=CC(=O)N1CC(OC)c2nn(-c3ccc(C4CC4)cc3)c3c2C(C1)N(C(=O)c1cnc(C(F)(F)F)cc1N)CC3 (stereo not shown) , please look it up.
< 0.0015 µM

Lab note: need AC50 with Full length WRN protein (aa 2-1432) (Homo sapiens (Human), UniProt Q14191) for entry C=CC(=O)N1CCc2nn(-c3ccc(C4CC4)cc3)c3c2C(C1)N(C(=O)c1ccn(CC(F)(F)F)c(=O)c1)CC3 (stereo not shown) , please look it up.
> 0.055 µM

###

// reported AC50 for each item listed
target: Full length WRN protein (aa 2-1432) (Homo sapiens (Human), UniProt Q14191); assay: WRN ATPase ADP-Glo biochemical assay, Assay Format B (100 μM ATP); settings: 0.25 nM WRN, 100 nM C6.18 ssDNA, 60 min preincubation, read-out: ATPase ADPGlo AC50 (uM)- Assay Format B

What value of AC50 has been recorded for this entry: COC/C=C/C(=O)N1CCc2nn(-c3ccc(C4CCC4)cc3O)c3c2C(C1)N(C(=O)c1cnc(C(F)(F)F)cc1N)CC3 (stereo not shown)
> 0.055 µM

What value of AC50 has been recorded for this entry: C=CC(=O)N1CCc2nn(-c3ccc(C4CC4)cc3)c3c2C(C1)N(C(=O)c1cnc(Br)c(F)c1N)CC3 (stereo not shown)
0.0015 to 0.005 µM

What value of AC50 has been recorded for this entry: C=CC(=O)N1CCc2nn(-c3ccc(C4CCC4)cc3O)c3c2C(C1)N(C(=O)c1ncc(C(F)(F)F)c(N)n1)CC3 (stereo not shown)
0.015 to 0.055 µM

What value of AC50 has been recorded for this entry: C=CC(=O)N1CCc2nn(-c3ccc(C45CC(C4)C5)cc3)c3c2C(C1)N(C(=O)c1ccc(C(F)(F)F)c2[nH]ncc12)CC3 (stereo not shown)
0.015 to 0.055 µM

What value of AC50 has been recorded for this entry: C=CC(=O)N1CCc2nn(-c3ccc(C4CC4)cc3)c3c2C(C1)N(C(=O)c1cnc(C(F)(F)F)c(C#N)c1)CC3 (stereo not shown)
> 0.055 µM

What value of AC50 has been recorded for this entry: C=CC(=O)N1CCc2nn(-c3ccc(C4CC4)cc3)c3c2C(C1)N(C(=O)c1ccc(Br)c2[nH]nc(N)c12)CC3 (stereo not shown)
0.005 to 0.015 µM

What value of AC50 has been recorded for this entry: C=CC(=O)N1CCc2nn(-c3ccc(C4CCC4)c(F)c3O)c3c2C(C1)N(C(=O)c1cnc(C(F)(F)F)cc1N)CC3 (stereo not shown)
0.005 to 0.015 µM

###

target: Full length WRN protein (aa 2-1432) (Homo sapiens (Human), UniProt Q14191); experiment: WRN ATPase ADP-Glo biochemical assay, Assay Format A (10 μM ATP); settings: 0.25 nM WRN, 100 nM C6.18 ssDNA, 30 min preincubation, read-out: ATPase ADPGlo AC50 (uM)- Assay Format A
// reported AC50 for each item listed

INSERT INTO measurements (compound, target_desc, measured_result) VALUES
  ('C=CC(=O)N1CCc2nn(-c3ccc(C4CCC4)c(F)c3)c3c2C(C1)N(C(=O)c1cnc(C(F)(F)F)c(O)c1)CC3 (stereo not drawn)', 'Full length WRN protein (aa 2-1432) (Homo sapiens (Human), UniProt Q14191)', '< 0.0015 µM'),
  ('C=CC(=O)N1CC(C)Oc2nn(-c3ccc(C(C)C)cc3)c3c2C(C1)N(C(=O)c1ccc(Br)c2[nH]cnc12)CC3 (stereo not drawn) [Compound 52]', 'Full length WRN protein (aa 2-1432) (Homo sapiens (Human), UniProt Q14191)', '0.005 to 0.015 µM'),
  ('C=CC(=O)N1CCc2nn(-c3ccc(C4CC4)cc3C(F)(F)F)c3c2C(C1)N(C(=O)c1cnc(C(F)(F)F)cc1N)CC3 (stereo not drawn)', 'Full length WRN protein (aa 2-1432) (Homo sapiens (Human), UniProt Q14191)', '0.015 to 0.055 µM'),
  ('C=CC(=O)N1CCc2nn(-c3ccc(C4CCC4)cc3O)c3c2C(C1)N(C(=O)c1ncc(C(F)(F)F)c2[nH]cnc12)CC3 (stereo not drawn)', 'Full length WRN protein (aa 2-1432) (Homo sapiens (Human), UniProt Q14191)', '< 0.0015 µM');

Lab note: need AC50 with Full length WRN protein (aa 2-1432) (Homo sapiens (Human), UniProt Q14191) for entry C=CC(=O)N1CCc2nn(-c3ccc(C(C)C)cc3)c3c2C(C1)N(C(=O)c1cnc(C(F)(F)F)cc1N)CC3 (stereo not drawn) , please look it up.
< 0.0015 µM

Lab note: need AC50 with Full length WRN protein (aa 2-1432) (Homo sapiens (Human), UniProt Q14191) for entry C=CC(=O)N1CC(O)c2nn(-c3ccc(C4CC4)cc3)c3c2C(C1)N(C(=O)c1cnc(C(F)(F)F)cc1N)CC3 (stereo not drawn) , please look it up.
< 0.0015 µM

###

target: Full length WRN protein (aa 2-1432) (Homo sapiens (Human), UniProt Q14191); experiment: WRN ATPase ADP-Glo biochemical assay, Assay Format A (10 μM ATP); details: 0.25 nM WRN, 100 nM C6.18 ssDNA, 30 min preincubation, read-out: ATPase ADPGlo AC50 (uM)- Assay Format A
quantity: AC50

INSERT INTO results (compound, quantity, measured_result) VALUES
  ('C=CC(=O)N1CCOc2nn(-c3ccc(C4CCC4)cc3O)c3c2C(C1)N(C(=O)c1ccc2c(Br)n[nH]c2c1)CC3 (stereo not shown) [Compound 40]', 'AC50', '< 0.0015 µM'),
  ('C=CC(=O)N1CCc2nn(-c3ccc(C(C)C)cc3)c3c2C(C1)N(C(=O)c1cnc(C(F)(F)F)c(OCC(N)=O)c1)CC3 (stereo not shown) [Compound 59]', 'AC50', '0.0015 to 0.005 µM'),
  ('C=CC(=O)N1CCc2nn(-c3ccc(C4CC4)cc3)c3c2C(C1)N(C(=O)c1cc2n(n1)CCN(C)S2(=O)=O)CC3 (stereo not shown) [Compound 116]', 'AC50', '> 0.055 µM');

Lab note: need AC50 with Full length WRN protein (aa 2-1432) (Homo sapiens (Human), UniProt Q14191) for entry C=CC(=O)N1CCc2nn(-c3ccc(C(C)C)cc3)c3c2C(C1)N(C(=O)c1ccc(Br)c(C(C)(C)O)c1)CC3 (stereo not shown) [Compound 102] , please look it up.
0.005 to 0.015 µM

Lab note: need AC50 with Full length WRN protein (aa 2-1432) (Homo sapiens (Human), UniProt Q14191) for entry C=CC(=O)N1CCc2nn(-c3ccc(C4CC4)cc3)c3c2C(C1)N(C(=O)c1ccc(C(F)(F)F)nn1)CC3 (stereo not shown) [Compound 115] , please look it up.
0.015 to 0.055 µM

Lab note: need AC50 with Full length WRN protein (aa 2-1432) (Homo sapiens (Human), UniProt Q14191) for entry C=CC(=O)N1CCc2nn(-c3ccc(C4CCC4)cc3O)c3c2C(C1)N(C(=O)c1cnc(C(F)(F)F)cc1N)CC3 (stereo not shown) [Compound 138] , please look it up.
< 0.0015 µM

Lab note: need AC50 with Full length WRN protein (aa 2-1432) (Homo sapiens (Human), UniProt Q14191) for entry C=CC(=O)N1CCc2nc(-c3ccc(C4CCC4)cc3)n3c2C(C1)N(C(=O)c1cnc(C(F)(F)F)c(O)c1)CC3 (stereo not shown) [Compound 86] , please look it up.
< 0.0015 µM

Lab note: need AC50 with Full length WRN protein (aa 2-1432) (Homo sapiens (Human), UniProt Q14191) for entry C=CC(=O)N1CCc2nn(-c3ccc(C(C)C)cc3)c3c2C(C1)N(C(=O)c1ccc(C(F)(F)F)nc1)CC3 (stereo not shown) [Compound 13] , please look it up.
0.0015 to 0.005 µM

Lab note: need AC50 with Full length WRN protein (aa 2-1432) (Homo sapiens (Human), UniProt Q14191) for entry C=CC(=O)N1CCc2nn(-c3ccc(C(C)C)cc3O)c3c2C(C1)N(C(=O)c1ccc(Br)c2[nH]cnc12)CC3 (stereo not shown) [Compound 20] , please look it up.
< 0.0015 µM

Lab note: need AC50 with Full length WRN protein (aa 2-1432) (Homo sapiens (Human), UniProt Q14191) for entry C=CC(=O)N1CCOc2nn(-c3ccc(C4CC4)cc3)c3c2C(C1)N(C(=O)c1ccc(C(F)(F)F)c2[nH]ncc12)CC3 (stereo not shown) [Compound 50] , please look it up.
0.0015 to 0.005 µM

Lab note: need AC50 with Full length WRN protein (aa 2-1432) (Homo sapiens (Human), UniProt Q14191) for entry C=CC(=O)N1CCc2nn(-c3ccc(C4CC4)cc3)c3c2C(C1)N(C(=O)c1cnc(C(C)(F)F)cc1N)CC3 (stereo not shown) [Compound 183] , please look it up.
< 0.0015 µM

Lab note: need AC50 with Full length WRN protein (aa 2-1432) (Homo sapiens (Human), UniProt Q14191) for entry CN(C)CC=CC(=O)N1CCOc2nn(-c3ccc(C4CCC4)cc3)c3c2C(C1)N(C(=O)c1ccc(Br)c2[nH]cnc12)CC3 (stereo not shown) [Compound 51] , please look it up.
0.015 to 0.055 µM

Lab note: need AC50 with Full length WRN protein (aa 2-1432) (Homo sapiens (Human), UniProt Q14191) for entry C=CC(=O)N1CCc2nn(-c3ccc(C4CCC4)c(F)c3O)c3c2C(C1)N(C(=O)c1cnc(C(F)(F)F)c(O)c1)CC3 (stereo not shown) [Compound 141] , please look it up.
< 0.0015 µM
